# Test system: human HL60 cells
# ASSAY PROTOCOL: SWATH-MS proteomics, differential protein representation, akirin2 KO vs WT HL60 cells
# Type: cell-based
# MEASUREMENT CONTEXT: KO vs WT HL60 cells; sheet "Under-represented in KO"
Quick list: Log (Fold Change) per entry.
Reply with just the number.

Before answering, review these 4 worked examples.
1) sp¦P51148¦RAB5C_HUMAN (protein, UniProt P51148 1-216, looked up) Ras-related protein Rab-5C: MAGRGGAARPNGPAAGNKICQFKLVLLGESAVGKSSLVLRFVKGQFHEYQESTIGAAFLTQTVCLDDTTVKFEIWDTAGQERYHSLAPMYYRGAQAAIVVYDITNTDTFARAKNWVKELQRQASPNIVIALAGNKADLASKRAVEFQEAQAYADDNSLLFMETSAKTAMNVNEIFMAIAKKLPKNEPQNATGAPGRNRGVDLQENNPASRSQCCSN: -0.2648
2) sp¦O75915¦PRAF3_HUMAN (protein, UniProt O75915 1-188, looked up) PRA1 family protein 3: MDVNIAPLRAWDDFFPGSDRFARPDFRDISKWNNRVVSNLLYYQTNYLVVAAMMISIVGFLSPFNMILGGIVVVLVFTGFVWAAHNKDVLRRMKKRYPTTFVMVVMLASYFLISMFGGVMVFVFGITFPLLLMFIHASLRLRNLKNKLENKMEGIGLKRTPMGIVLDALEQQEEGINRLTDYISKVKE: -0.3465
3) sp¦P42126¦ECI1_HUMAN (protein, UniProt P42126 42-302, looked up) Enoyl-CoA delta isomerase 1, …: FGSQRVLVEPDAGAGVAVMKFKNPPVNSLSLEFLTELVISLEKLENDKSFRGVILTSDRPGVFSAGLDLTEMCGRSPAHYAGYWKAVQELWLRLYQSNLVLVSAINGACPAGGCLVALTCDYRILADNPRYCIGLNETQLGIIAPFWLKDTLENTIGHRAAERALQLGLLFPPAEALQVGIVDQVVPEEQVQSTALSAIAQWMAIPDHARQLTKAMMRKATASRLVTQRDADVQNFVSFISKDSIQKSLQMYLERLKEEKG: -0.3295
4) sp¦Q9NVA1¦UQCC1_HUMAN (protein, UniProt Q9NVA1 1-299, looked up) Ubiquinol-cytochrome c …: MALLVRVLRNQTSISQWVPVCSRLIPVSPTQGQGDRALSRTSQWPQMSQSRACGGSEQIPGIDIQLNRKYHTTRKLSTTKDSPQPVEEKVGAFTKIIEAMGFTGPLKYSKWKIKIAALRMYTSCVEKTDFEEFFLRCQMPDTFNSWFLITLLHVWMCLVRMKQEGRSGKYMCRIIVHFMWEDVQQRGRVMGVNPYILKKNMILMTNHFYAAILGYDEGILSDDHGLAAALWRTFFNRKCEDPRHLELLVEYVRKQIQYLDSMNGEDLLLTGEVSWRPLVEKNPQSILKPHSPTYNDEGL: -0.2718

Okay, next one:
Entry sp¦O96011¦PX11B_HUMAN (protein, UniProt O96011 1-259, looked up) Peroxisomal membrane protein …: MDAWVRFSAQSQARERLCRAAQYACSLLGHALQRHGASPELQKQIRQLESHLSLGRKLLRLGNSADALESAKRAVHLSDVVLRFCITVSHLNRALYFACDNVLWAGKSGLAPRVDQEKWAQRSFRYYLFSLIMNLSRDAYEIRLLMEQESSACSRRLKGSGGGVPGGSETGGLGGPGTPGGGLPQLALKLRLQVLLLARVLRGHPPLLLDVVRNACDLFIPLDKLGLWRCGPGIVGLCGLVSSILSILTLIYPWLRLKP , Log (Fold Change) reported as -0.2721

These measurements were taken from paper PMC8298264.
